Target: POU1 (OCT1 POU domain) (human, UniProt P14859 260-458)
Sequence (P14859 260-458): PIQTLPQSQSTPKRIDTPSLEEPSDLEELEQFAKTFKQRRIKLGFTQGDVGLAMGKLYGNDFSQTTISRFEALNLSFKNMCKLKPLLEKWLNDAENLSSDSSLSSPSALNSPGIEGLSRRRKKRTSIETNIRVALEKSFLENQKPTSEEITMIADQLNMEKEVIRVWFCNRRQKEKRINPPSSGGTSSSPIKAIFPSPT
Assay: EMSA-SELEX-seq; no BOB1; 20 mM Tris-HCl pH 7.6, 140 mM NaCl, 10% glycerol, 0.5 mM EDTA, 0.05% Triton X-100, 0.1 mg/mL BSA, 0.1 mg/mL poly(dI-dC), 5 mM DTT, room temperature, 20 min; high values mean tight binding
Settings: protein: recombinant; dsDNA, one strand shown
Readings of binding signal for the listed sequences

Would you please look over these solved cases?
Sequence record: ATAGCAAG
Target or system: POU1 (OCT1 POU domain) (human, UniProt P14859 260-458)
binding signal: 0.032 % of ANNNNAAN 8-mers
--
Sequence record: AAGCAAAG
Target or system: POU1 (OCT1 POU domain) (human, UniProt P14859 260-458)
binding signal: 0.0847 % of ANNNNAAN 8-mers
--
Sequence record: ACACGAAA
Target or system: POU1 (OCT1 POU domain) (human, UniProt P14859 260-458)
binding signal: 0.0332 % of ANNNNAAN 8-mers
--
Sequence record: ATGATAAA
Target or system: POU1 (OCT1 POU domain) (human, UniProt P14859 260-458)
binding signal: 0.104 % of ANNNNAAN 8-mers
--
Sequence record: ACATGAAA
Target or system: POU1 (OCT1 POU domain) (human, UniProt P14859 260-458)
binding signal: 0.0671 % of ANNNNAAN 8-mers
--
Sequence record: ACGGCAAC
Target or system: POU1 (OCT1 POU domain) (human, UniProt P14859 260-458)
binding signal: 0.0141 % of ANNNNAAN 8-mers

Input line: Give recorded binding signal. `AGTAAAAC`
Output line: 0.0427 % of ANNNNAAN 8-mers

----------
Target: POU2 (OCT2 POU domain) (human, UniProt P09086 175-386)
Sequence: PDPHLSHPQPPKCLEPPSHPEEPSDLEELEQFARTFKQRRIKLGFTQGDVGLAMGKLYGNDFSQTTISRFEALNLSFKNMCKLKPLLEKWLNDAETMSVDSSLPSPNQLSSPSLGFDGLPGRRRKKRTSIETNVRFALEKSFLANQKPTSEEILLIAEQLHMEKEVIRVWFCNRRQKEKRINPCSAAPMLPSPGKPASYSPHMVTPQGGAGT
Assay: EMSA-SELEX-seq; no BOB1; 20 mM Tris-HCl pH 7.6, 140 mM NaCl, 10% glycerol, 0.5 mM EDTA, 0.05% Triton X-100, 0.1 mg/mL BSA, 0.1 mg/mL poly(dI-dC), 5 mM DTT, room temperature, 20 min; high values mean tight binding
Conditions: protein: recombinant; dsDNA, one strand shown
Readings of binding signal for the listed sequences

Would you please look over these solved cases?
Sequence record: AGTGAAAT
binding signal: 0.124 % of ANNNNAAN 8-mers

Sequence record: AATAGAAC
binding signal: 0.0541 % of ANNNNAAN 8-mers

Input line: Give recorded binding signal. `AGGTAAAG`
Output line: 0.0708 % of ANNNNAAN 8-mers

Input line: Give recorded binding signal. `AGGCGAAA`
Output line: 0.0357 % of ANNNNAAN 8-mers

Input line: Give recorded binding signal. `AACCCAAC`
Output line: 0.0132 % of ANNNNAAN 8-mers

Input line: Give recorded binding signal. `ACGACAAG`
Output line: 0.023 % of ANNNNAAN 8-mers

Input line: Give recorded binding signal. `AATGAAAA`
Output line: 0.152 % of ANNNNAAN 8-mers

Input line: Give recorded binding signal. `AGTCCAAG`
Output line: 0.0253 % of ANNNNAAN 8-mers

Input line: Give recorded binding signal. `AAATGAAA`
Output line: 0.133 % of ANNNNAAN 8-mers
